Experiment: qHTS Assay for Lipid Storage Modulators in Drosophila S3 Cells;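 also: cells counted by Cell Tracker Red CMTPX staining in the red channel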
Settings: BODIPY lipid droplet fluorescence, 18-24 h, cells fed with added oleic acid; measured here: cell count max response
Among all 320,000 compounds or so, about 2,100 (0.66%) were called active. Inconclusive results (about 53%) are left out. The full list was thinned out, with actives kept by preference.
measure: cell number change (%)
Kindly answer with a numeric value in %, unit omitted.

The examples below pair each entry with its known result.
{"compound": "COc1ccc(-n2c(O)c(C(C)=NCCN3CCNCC3)c(=O)[nH]c2=O)cc1", "unit": "%", "cell number change": -2.05}
{"compound": "CCCCn1c(O)c(C(CC)=Nc2ccc(C(=O)O)cc2)c(=O)[nH]c1=O", "unit": "%", "cell number change": 5.66}
{"compound": "O=c1[nH]c(=S)[nH]c(O)c1/C=C1/C=c2ccccc2=N1", "unit": "%", "cell number change": -21.1}

Asked: Given the entry `Cc1ccc(NP(=O)(Oc2ccccc2F)Oc2ccccc2F)cc1` , report its measured cell number change.
Given back: -20.4

Asked: Please do the same for CSc1ccccc1C(=O)C1CCCN(Cc2cccc(C)n2)C1 (stereo unspecified) as well.
Given back: 5.61

* * *

Assay: qHTS Assay for Lipid Storage Modulators in Drosophila S3 Cells;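 also: cells counted by Cell Tracker Red CMTPX staining in the red channel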
Settings: BODIPY lipid droplet fluorescence, 18-24 h, cells fed with added oleic acid; measured here: cell count max response
Description: NIH Molecular Libraries Probe Production Centers Network [MLPCN] NIH Chemical Genomics Center [NCGC] […] Triacsin C (Sigma-Aldrich T-4540), an inhibitor of long-chain fatty acyl CoA synthetase that blocks synthesis of triglycerides, was used as a positive control for lipid under-storage. […] Fluorescence was detected by excitation of the fluorophores with a 488-nm laser on an Acumen Explorer (TTP Lab Tech). […] Cells were detected using channel 3 (575-640 nm) with 5-um width and 100-um depth filters. […]
The whole screen tested about 320,000 compounds, of which about 2,100 (0.66%) were called active. Roughly 53% stayed inconclusive and do not appear here. The entries come from a sample that favours actives as a whole.
measure: cell number change (%)
State the answer as a number, implicitly in %.

# count of solved cases: 6
{"compound": "Cc1cc(O)c2c(c1)C(=O)C13C(=C2O)C(=O)[C@H]2[C@@H](O)[C@@H]1[C@H]1[C@H](O)[C@@H]3C(=O)C3=C(O)c4c(O)cc(C)cc4C(=O)C312 (stereo not given in full)", "measure": "cell number change", "unit": "%", "endpoint.value": 19.8}
{"compound": "CCc1ccc(CNCCc2ccc(F)cc2)cc1", "measure": "cell number change", "unit": "%", "endpoint.value": -19.7}
{"compound": "Cc1ccc(/C=C2/C(=O)NC(=O)N(CCc3ccc(F)cc3)C2=O)o1", "measure": "cell number change", "unit": "%", "endpoint.value": -2.41}
{"compound": "Cn1c(=O)c2c(nc(N/N=C/c3c(O)n(-c4ccccc4)c(=S)[nH]c3=O)n2C)n(C)c1=O", "measure": "cell number change", "unit": "%", "endpoint.value": 0.523}
{"compound": "O=C(COc1ccccc1Cl)N1CCCC(N2CCN(c3ccc(F)cc3)CC2)C1 (stereo not given)", "measure": "cell number change", "unit": "%", "endpoint.value": -2.12}
{"compound": "O=C(Nc1ccc(Br)cc1)c1nn(C23CC4CC(CC(C4)C2)C3)cc1Br", "measure": "cell number change", "unit": "%", "endpoint.value": 0.69}

Asked: Reported cell number change, compound `Cc1ccc2[nH]c3c(c2c1)CN(C(=O)CN1C[C@H]2C[C@@H](C1)c1cccc(=O)n1C2)CC3` : ____
Given back: 14.9

Asked: Next entry: O=C1Nc2ccc(Br)cc2C(c2ccccc2)=NC1O (stereo not given)
Given back: 22.1

Asked: Same thing, different compound: CSc1ccccc1C(=O)C1CCCN(Cc2ccncc2)C1 (stereo not given)
Given back: 4.03

Asked: Please give the result for `CCN1CCN(C(=O)Cc2ccccc2OC)CC1` too.
Given back: 5.49
